pIC50: −log10 of the molar value.
pIC50 for RAC-alpha serine/threonine-protein kinase (Homo sapiens, UniProt P31749) - collated from the literature.
Measured Quantity: pIC50

Line Notation: NC(=O)c1cnc(N[C@H]2CC[C@H](N)CC2)c2nc(-c3ccc(Cl)cc3)cn12
Result: < 4.52

Line Notation: Cc1n[nH]c2sc(C(N)=O)c(NC(=O)COc3ccccc3)c12
Result: < 4.00

Line Notation: CCn1c(-c2nonc2N)nc2c(C#CC(C)(C)O)nc(CN(C)C)cc21
Result: 8.70

Line Notation: Cc1[nH]nc2sc(C(N)=O)c(NC(=O)c3ccccc3Cl)c12
Result: < 4.00

Line Notation: CSc1ccccc1Nc1nc(N2CCNCC2)nc2c(NCC3CC3)ncnc12
Result: < 4.40
